System: p-p70 S6 Kinase (Thr389) in MCF-7 cells
Assay: AlphaLISA Ultra pS6K1 assay
Type: cell-based
Details: Homo sapiens, 1.5 h; MCF7 cells, 90 min
Experimental: Example 55: AlphaLISA Ultra pS6K1 Assay Assay Protocol: • 1. Seed MCF-7 cells in Corning 3701 plate and incubate for 20˜24 hour. 12,000˜16,000 cells will be seeded in 36 μL medium per well. • 2. Change the culture medium with fresh medium and incubate for another 2 hours. • 3. Add 12 μL (4×) compounds into the cell plate by HAMILTON. Final DMSO concentration is 0.5%. Incubate for 90 minutes. • 4. Aspirate 38 μL by HAMILTON, 10 μL rest per well. • 5. […] Count the plate by EnSpire Multimode Plate Reader
Below, each entry is listed with its recorded IC50.

A selection of reference data follows.
Compound	Reading
CO[C@@H]1C[C@H](C[C@@H](C)[C@@H]2CC(=O)[C@H](C)/C=C(\C)[C@@H](O)[C@@H](OC)C(=O)[C@H](C)C[C@H](C)/C=C/C=C/C=C(\C)[C@H](OCCOC3COC3)C[C@@H]3CC[C@@H](C)[C@@](O)(O3)C(=O)C(=O)N3CCCC[C@H]3C(=O)O2)CC[C@H]1OP(C)(C)=O [I-77]	0.01 to 0.1 µM
CO[C@@H]1/C(C)=C/[C@@H](C)C(=O)C[C@@H]([C@H](C)C[C@@H]2CC[C@@H](O)[C@H](OC)C2)OC(=O)[C@@H]2CCCCN2C(=O)C(=O)[C@]2(O)O[C@@H](CC[C@H]2C)C[C@@H](OCCOC2COC2)/C(C)=C/C=C/C=C/[C@@H](C)C[C@@H](C)C(=O)[C@@H]1OC [I-96]	≥ 1 µM
CO[C@@H]1C[C@H](C[C@@H](C)[C@@H]2CC(=O)[C@H](C)/C=C(\C)[C@@H](O)[C@@H](OC)C(=O)[C@H](C)C[C@H](C)/C=C/C=C/C=C(\C)[C@H](OCC3COCCO3)C[C@@H]3CC[C@@H](C)[C@@](O)(O3)C(=O)C(=O)N3CCCC[C@H]3C(=O)O2)CC[C@H]1OCCCO (stereo partly shown) [I-92]	0.01 to 0.1 µM
CO[C@@H]1/C(C)=C/[C@@H](C)C(=O)C[C@@H]([C@H](C)C[C@@H]2CC[C@@H](OC(F)F)[C@H](OC)C2)OC(=O)[C@@H]2CCCCN2C(=O)C(=O)[C@]2(O)O[C@@H](CC[C@H]2C)CC(OCC2COCCO2)/C(C)=C/C=C/C=C/[C@@H](C)C[C@@H](C)C(=O)[C@@H]1OC (stereo partly shown) [I-8]	0.01 to 0.1 µM

// CO[C@@H]1C[C@H](C[C@@H](C)[C@@H]2CC(=O)[C@H](C)/C=C(\C)[C@@H](O)[C@@H](OC)C(=O)[C@H](C)C[C@H](C)/C=C/C=C/C=C(\C)[C@@H](OCCOC3COC3)C[C@@H]3CC[C@@H](C)[C@@](O)(O3)C(=O)C(=O)N3CCCC[C@H]3C(=O)O2)CC[C@H]1OP(C)(C)=O [I-78] : IC50 value = < 0.001 µM

Input CO[C@@H]1C[C@H](C[C@@H](C)[C@@H]2CC(=O)[C@H](C)/C=C(\C)[C@@H](O)[C@@H](OC)C(=O)[C@H](C)C[C@H](C)/C=C/C=C/C=C(\C)[C@@H](OCCOC3COC3)C[C@@H]3CC[C@@H](C)[C@@](O)(O3)C(=O)C(=O)N3CCCC[C@H]3C(=O)O2)CC[C@H]1OCCCN1C[C@@H](C)O[C@@H](C)C1 [I-101] . Output IC50: 0.01 to 0.1 µM

Value of IC50 reported for the compound CO[C@@H]1C[C@H](C[C@@H](C)[C@@H]2CC(=O)[C@H](C)/C=C(\C)[C@@H](O)[C@@H](OC)C(=O)[C@H](C)C[C@H](C)/C=C/C=C/C=C(\C)C(OCC3COCCO3)C[C@@H]3CC[C@@H](C)[C@@](O)(O3)C(=O)C(=O)N3CCCC[C@H]3C(=O)O2)CC[C@H]1OCCCN1CCOCC1 (stereo partly shown) [I-12] is < 0.001 µM

So, CO[C@@H]1C[C@H](C[C@@H](C)[C@@H]2CC(=O)[C@H](C)/C=C(\C)[C@@H](O)[C@@H](OC)C(=O)[C@H](C)C[C@H](C)/C=C/C=C/C=C(\C)[C@H](OCC3COCCO3)C[C@@H]3CC[C@@H](C)[C@@](O)(O3)C(=O)C(=O)N3CCCC[C@H]3C(=O)O2)CC[C@H]1OC(=O)NCCN1CCOCC1 (stereo partly shown) [I-102] ? Its IC50 was < 0.001 µM

// IC50 value for CO[C@@H]1C[C@H](C[C@@H](C)[C@@H]2CC(=O)[C@H](C)/C=C(\C)[C@@H](O)[C@@H](OC)C(=O)[C@H](C)C[C@H](C)/C=C/C=C/C=C(\C)[C@H](OCCOC3COC3)C[C@@H]3CC[C@@H](C)[C@@](O)(O3)C(=O)C(=O)N3CCCC[C@H]3C(=O)O2)CC[C@H]1OC(F)F [I-104] : 0.01 to 0.1 µM

Documented IC50 of CO[C@@H]1/C(C)=C/[C@@H](C)C(=O)C[C@@H]([C@H](C)C[C@@H]2CC[C@@H](OCCO)[C@H](OC)C2)OC(=O)[C@@H]2CCCCN2C(=O)C(=O)[C@]2(O)O[C@@H](CC[C@H]2C)CC(OCCOCCOC2COC2)/C(C)=C/C=C/C=C/[C@@H](C)C[C@@H](C)C(=O)[C@@H]1OC (stereo partly shown) [I-80] : 0.01 to 0.1 µM

Record COCCOCCO[C@@H]1C[C@@H]2CC[C@@H](C)[C@@](O)(O2)C(=O)C(=O)N2CCCC[C@H]2C(=O)O[C@H]([C@H](C)C[C@@H]2CC[C@@H](OC(F)F)[C@H](OC)C2)CC(=O)[C@H](C)/C=C(\C)[C@@H](O)[C@@H](OC)C(=O)[C@H](C)C[C@H](C)/C=C/C=C/C=C/1C [I-5] , field IC50: 0.01 to 0.1 µM

Per the record, CO[C@@H]1C[C@H](C[C@@H](C)[C@@H]2CC(=O)[C@H](C)/C=C(\C)[C@@H](O)[C@@H](OC)C(=O)[C@H](C)C[C@H](C)/C=C/C=C/C=C(\C)[C@H](OC[C@@H]3COCCO3)C[C@@H]3CC[C@@H](C)[C@@](O)(O3)C(=O)C(=O)N3CCCC[C@H]3C(=O)O2)CC[C@H]1OCCO [I-84] has IC50 of 0.001 to 0.01 µM

For reference, reported IC50 for CO[C@@H]1C[C@H](C[C@@H](C)[C@@H]2CC(=O)[C@H](C)/C=C(\C)[C@@H](O)[C@@H](OC)C(=O)[C@H](C)C[C@H](C)/C=C/C=C/C=C(\C)[C@H](OCCOC3COC3)C[C@@H]3CC[C@@H](C)[C@@](O)(O3)C(=O)C(=O)N3CCCC[C@H]3C(=O)O2)CC[C@H]1OCCCN1CCOCC1 [I-13] stands at 0.001 to 0.01 µM
